Just for reference, ChEMBL document CHEMBL4007432 is where these values come from.

# System under test: Cytochrome P450 2C9 (Homo sapiens)
# Sequence (P11712 whole entry): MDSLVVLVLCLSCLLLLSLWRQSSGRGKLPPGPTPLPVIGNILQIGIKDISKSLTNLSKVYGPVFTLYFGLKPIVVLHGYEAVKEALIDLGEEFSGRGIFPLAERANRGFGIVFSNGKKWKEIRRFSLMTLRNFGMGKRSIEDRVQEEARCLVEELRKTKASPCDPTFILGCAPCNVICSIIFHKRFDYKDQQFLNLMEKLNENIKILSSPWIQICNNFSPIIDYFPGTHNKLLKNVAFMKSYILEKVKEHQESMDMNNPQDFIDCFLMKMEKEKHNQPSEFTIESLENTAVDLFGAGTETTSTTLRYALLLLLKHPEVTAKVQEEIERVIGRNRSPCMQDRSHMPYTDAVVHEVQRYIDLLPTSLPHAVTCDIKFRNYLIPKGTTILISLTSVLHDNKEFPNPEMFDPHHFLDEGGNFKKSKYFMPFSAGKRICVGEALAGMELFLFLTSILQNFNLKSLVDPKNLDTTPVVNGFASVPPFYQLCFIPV
pIC50: −log10 of the molar value.
List of pIC50 values.

{"Query smiles": "O=C(/C=C/c1cccnc1)c1cccc(Br)c1", "pIC50": "< 4.70"}
{"Query smiles": "COc1cccc(/C=C/C(=O)c2cccnc2)c1", "pIC50": "< 4.70"}
{"Query smiles": "COc1ccc(/C=C/C(=O)c2cccnc2)cc1OC", "pIC50": "< 4.70"}
{"Query smiles": "O=C(/C=C/c1ccccc1)c1cccnc1", "pIC50": "< 4.70"}
{"Query smiles": "COc1ccc(/C=C/C(=O)c2cccnc2)c(OC)c1OC", "pIC50": "< 4.70"}

###

# System under test: Cytochrome P450 1B1 (Homo sapiens, UniProt Q16678)
# Sequence (Q16678 whole entry): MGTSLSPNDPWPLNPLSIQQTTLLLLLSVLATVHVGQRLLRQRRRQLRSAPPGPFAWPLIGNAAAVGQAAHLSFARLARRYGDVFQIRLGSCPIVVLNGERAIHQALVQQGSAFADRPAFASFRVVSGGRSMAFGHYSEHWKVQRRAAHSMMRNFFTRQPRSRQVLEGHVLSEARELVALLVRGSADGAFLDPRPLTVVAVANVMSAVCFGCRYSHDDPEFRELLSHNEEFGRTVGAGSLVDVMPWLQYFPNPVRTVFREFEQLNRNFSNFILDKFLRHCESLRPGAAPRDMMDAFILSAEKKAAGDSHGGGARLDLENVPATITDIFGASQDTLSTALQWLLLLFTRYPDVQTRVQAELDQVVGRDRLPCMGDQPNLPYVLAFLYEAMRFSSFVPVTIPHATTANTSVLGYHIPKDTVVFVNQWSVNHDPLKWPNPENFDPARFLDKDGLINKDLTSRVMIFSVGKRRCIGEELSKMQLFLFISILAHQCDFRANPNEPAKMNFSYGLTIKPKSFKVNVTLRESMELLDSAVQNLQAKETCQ
# Method notes: Inhibition of human liver CYP1B1 expressed in Saccharomyces cerevisiae YY7 microsomal membranes using 7-ethoxyresorufin as substrate after 10 mins by fluorescence assay
Measured attribute: IC50

{"Query smiles": "O=C(/C=C/c1ccccc1)c1cccnc1", "Measured attribute": "IC50", "Meas value": "0.077 µM"}
{"Query smiles": "COc1ccc(/C=C/C(=O)c2cccnc2)cc1O", "Measured attribute": "IC50", "Meas value": "0.112 µM"}
{"Query smiles": "O=C(/C=C/c1ccc2ccccc2c1)c1cccnc1", "Measured attribute": "IC50", "Meas value": "0.01 µM"}
{"Query smiles": "O=C(/C=C/c1cccnc1)c1cccc(Cl)c1", "Measured attribute": "IC50", "Meas value": "0.059 µM"}
{"Query smiles": "COc1ccc(C(=O)/C=C/c2cccnc2)c(OC)c1", "Measured attribute": "IC50", "Meas value": "0.093 µM"}
{"Query smiles": "O=C(/C=C/c1ccc(Cl)c(Cl)c1)c1cccnc1", "Measured attribute": "IC50", "Meas value": "0.096 µM"}
{"Query smiles": "O=C(/C=C/c1cccnc1)c1ccc(-c2ccccc2)cc1", "Measured attribute": "IC50", "Meas value": "0.189 µM"}
{"Query smiles": "COc1ccc(C(=O)/C=C/c2cccnc2)c(OC)c1OC", "Measured attribute": "IC50", "Meas value": "0.137 µM"}
{"Query smiles": "O=C(/C=C/c1cccnc1)c1ccc2ccc3cccc4ccc1c2c34", "Measured attribute": "IC50", "Meas value": "0.162 µM"}
{"Query smiles": "COc1ccc(/C=C/C(=O)c2cccnc2)cc1OC", "Measured attribute": "IC50", "Meas value": "0.019 µM"}
{"Query smiles": "O=C(/C=C/c1cccnc1)c1ccc2ccccc2c1", "Measured attribute": "IC50", "Meas value": "0.015 µM"}
{"Query smiles": "COc1cccc(C(=O)/C=C/c2cccnc2)c1", "Measured attribute": "IC50", "Meas value": "0.13 µM"}
{"Query smiles": "COc1ccc(C(=O)/C=C/c2cccnc2)cc1", "Measured attribute": "IC50", "Meas value": "0.525 µM"}
{"Query smiles": "COc1cc(OC)cc(C(=O)/C=C/c2cccnc2)c1", "Measured attribute": "IC50", "Meas value": "0.106 µM"}
{"Query smiles": "O=C(/C=C/c1cccnc1)c1ccc2ccc3ccccc3c2c1", "Measured attribute": "IC50", "Meas value": "0.048 µM"}

###

# System under test: Cytochrome P450 2D6 (Homo sapiens, UniProt P10635)
# Sequence (P10635 whole entry): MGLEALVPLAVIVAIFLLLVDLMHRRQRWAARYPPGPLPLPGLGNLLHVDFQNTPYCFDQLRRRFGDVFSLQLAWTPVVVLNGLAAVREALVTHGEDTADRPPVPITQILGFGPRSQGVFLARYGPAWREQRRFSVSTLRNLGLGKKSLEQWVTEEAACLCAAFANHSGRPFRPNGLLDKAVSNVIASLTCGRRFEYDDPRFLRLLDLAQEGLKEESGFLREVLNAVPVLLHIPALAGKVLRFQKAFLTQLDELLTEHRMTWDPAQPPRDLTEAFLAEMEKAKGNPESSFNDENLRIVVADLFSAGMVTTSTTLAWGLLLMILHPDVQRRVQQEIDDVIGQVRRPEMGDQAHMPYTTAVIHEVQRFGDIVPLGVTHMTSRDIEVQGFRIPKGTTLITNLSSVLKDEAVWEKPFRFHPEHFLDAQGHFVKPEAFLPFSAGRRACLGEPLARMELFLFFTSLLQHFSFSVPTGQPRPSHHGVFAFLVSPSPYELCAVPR
pIC50: −log10 of the molar value.
Measured attribute: pIC50

{"Query smiles": "O=C(/C=C/c1cccnc1)c1ccc2ccc3ccccc3c2c1", "Meas value": 4.92}
{"Query smiles": "O=C(/C=C/c1ccccc1)c1cccnc1", "Meas value": 5.09}
{"Query smiles": "O=C(/C=C/c1cccnc1)c1cccc(Cl)c1", "Meas value": 4.97}
{"Query smiles": "COc1ccccc1/C=C/C(=O)c1cccnc1", "Meas value": 5.76}
{"Query smiles": "O=C(/C=C/c1ccc2ccccc2c1)c1cccnc1", "Meas value": 5.00}
